Data provenance: patent US20250120967A1

Let's look at some compounds and their measured pIC50.
Molecular target: LYN B (Homo sapiens)
Sequence (P07948 1-491 isoform P07948-2): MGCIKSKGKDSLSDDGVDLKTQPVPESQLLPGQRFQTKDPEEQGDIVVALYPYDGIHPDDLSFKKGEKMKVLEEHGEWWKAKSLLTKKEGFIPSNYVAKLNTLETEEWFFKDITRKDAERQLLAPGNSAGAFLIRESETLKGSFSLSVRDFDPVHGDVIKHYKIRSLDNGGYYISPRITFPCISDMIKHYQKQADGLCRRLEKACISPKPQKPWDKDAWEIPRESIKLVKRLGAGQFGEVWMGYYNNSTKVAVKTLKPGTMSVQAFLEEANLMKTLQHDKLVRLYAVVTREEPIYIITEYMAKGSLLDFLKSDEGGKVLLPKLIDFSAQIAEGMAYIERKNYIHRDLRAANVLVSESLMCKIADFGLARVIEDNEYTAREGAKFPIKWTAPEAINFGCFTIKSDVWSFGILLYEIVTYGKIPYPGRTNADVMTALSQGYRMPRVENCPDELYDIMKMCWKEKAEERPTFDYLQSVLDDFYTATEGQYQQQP
Assay: Tyrosine kinase inhibition assay
Type: biochemical
Conditions: LYN B; read-out: IC50 of compound
pIC50: −log10 of the molar value.

# compound, pIC50
data = [
    ("COc1cc2nccc(Oc3ccc(NC(=O)C4(C(=O)Nc5ccc(F)cc5)CC4)cc3F)c2cc1Oc1ccc(N)cc1F", 7.73),
    ("CNC(=O)c1cc2c(Oc3ccc(NC(=O)C4(C(=O)Nc5ccc(F)cc5)CC4)cc3)ccnc2cc1OC [Zanzalintinib, reference compound]", 7.51),
]

* * *

Molecular target: PIK3CD/PIK3R1 (p110 delta/p85 alpha) (Homo sapiens, UniProt O00329)
Sequence (O00329 whole entry): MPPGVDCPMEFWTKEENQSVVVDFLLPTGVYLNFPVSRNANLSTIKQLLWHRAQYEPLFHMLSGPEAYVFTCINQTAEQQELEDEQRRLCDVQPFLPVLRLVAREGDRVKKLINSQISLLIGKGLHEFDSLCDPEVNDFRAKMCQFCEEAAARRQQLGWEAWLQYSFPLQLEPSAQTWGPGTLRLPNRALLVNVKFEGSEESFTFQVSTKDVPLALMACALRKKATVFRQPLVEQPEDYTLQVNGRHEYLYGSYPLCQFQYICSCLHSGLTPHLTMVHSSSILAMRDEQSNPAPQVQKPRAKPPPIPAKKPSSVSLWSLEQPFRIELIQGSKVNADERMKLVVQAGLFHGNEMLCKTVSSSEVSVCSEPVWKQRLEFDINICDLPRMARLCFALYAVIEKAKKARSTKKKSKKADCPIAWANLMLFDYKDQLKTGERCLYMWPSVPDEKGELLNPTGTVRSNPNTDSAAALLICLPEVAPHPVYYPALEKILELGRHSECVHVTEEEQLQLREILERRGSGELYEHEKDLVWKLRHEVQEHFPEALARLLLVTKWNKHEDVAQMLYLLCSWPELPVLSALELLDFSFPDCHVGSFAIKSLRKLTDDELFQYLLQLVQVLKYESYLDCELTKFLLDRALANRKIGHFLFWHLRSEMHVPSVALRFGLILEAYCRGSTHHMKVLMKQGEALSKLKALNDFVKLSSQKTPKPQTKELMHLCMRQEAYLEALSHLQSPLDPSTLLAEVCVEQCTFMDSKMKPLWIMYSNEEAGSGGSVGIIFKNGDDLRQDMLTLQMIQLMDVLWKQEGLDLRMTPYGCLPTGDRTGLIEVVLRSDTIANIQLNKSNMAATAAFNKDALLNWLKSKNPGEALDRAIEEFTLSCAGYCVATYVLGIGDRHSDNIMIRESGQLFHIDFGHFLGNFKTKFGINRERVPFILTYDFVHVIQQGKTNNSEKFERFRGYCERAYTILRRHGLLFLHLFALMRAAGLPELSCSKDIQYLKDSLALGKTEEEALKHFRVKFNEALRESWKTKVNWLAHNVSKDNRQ
Sequence (P27986 whole entry partner): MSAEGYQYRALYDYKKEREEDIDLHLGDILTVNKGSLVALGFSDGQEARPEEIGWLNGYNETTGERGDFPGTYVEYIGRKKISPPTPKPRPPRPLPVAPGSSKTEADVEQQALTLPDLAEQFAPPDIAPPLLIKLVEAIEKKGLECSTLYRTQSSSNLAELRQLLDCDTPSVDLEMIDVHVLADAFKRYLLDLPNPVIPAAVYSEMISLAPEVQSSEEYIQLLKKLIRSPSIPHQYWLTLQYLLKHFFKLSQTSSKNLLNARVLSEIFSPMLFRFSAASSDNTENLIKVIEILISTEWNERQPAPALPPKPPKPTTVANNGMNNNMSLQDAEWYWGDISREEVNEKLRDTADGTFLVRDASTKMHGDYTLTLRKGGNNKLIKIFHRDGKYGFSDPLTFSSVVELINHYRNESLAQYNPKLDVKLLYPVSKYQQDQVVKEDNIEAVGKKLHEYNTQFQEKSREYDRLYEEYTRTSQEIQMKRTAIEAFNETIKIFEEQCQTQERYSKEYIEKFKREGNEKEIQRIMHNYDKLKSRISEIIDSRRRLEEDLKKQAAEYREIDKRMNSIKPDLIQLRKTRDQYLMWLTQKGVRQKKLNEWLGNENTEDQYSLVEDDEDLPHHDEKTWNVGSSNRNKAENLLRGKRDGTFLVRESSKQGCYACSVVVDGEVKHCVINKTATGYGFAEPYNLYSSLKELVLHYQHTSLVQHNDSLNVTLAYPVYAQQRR
Test: Tyrosine kinase inhibition assay
Type: biochemical
Details: single concentration 1.0 μM, read-out: percent inhibition
inhibition at 1 µM below 10% gives f; inhibition at 1 µM at or above it gives t.

# molecule, class.label
measured = [
    ("COc1cc2nccc(Oc3ccc(NC(=O)C4(NC(=O)c5ccc(F)cc5)CC4)cc3F)c2cc1Oc1c(F)cc(N)cc1F [Cbo-14]", "t"),
    ("COc1cc2nccc(Oc3ccc(NC(=O)C4(NC(=O)c5ccc(F)cc5)CC4)cc3F)c2cc1Oc1ccc(N)cc1F [Cbo-10]", "t"),
    ("COc1cc2nccc(Oc3ccc(NC(=O)C4(C(=O)Nc5ccc(F)cc5)CC4)cc3)c2cc1OC [Cabozantinib, reference compound]", "f"),
    ("COc1cc2nccc(Oc3ccc(NC(=O)C4(C(=O)Nc5ccc(F)cc5)CC4)cc3F)c2cc1Oc1ccc(N)cc1F [Cbo-23]", "f"),
    ("COc1cc2nccc(Oc3ccc(NC(=O)C4(NC(=O)c5ccc(F)cc5)CC4)cc3F)c2cc1OC [Cbo-02]", "f"),
]
